Each item that follows carries a reported IC50.
Test system: NB-4 (a leukaemia cell line)
Experiment: MTT cell viability assay, NB-4
Type: cell-based
Conditions: 72 hrs
ATTRIBUTE MEASURED: IC50 (nM)

>>> df
                                   compound  attribute_measured  value_units  quantitative_readout
0  NC(=O)c1ccc(I)c([N+](=O)[O-])c1 [Iniparib, 4-Iodo-3-nitrobenzamide, reference compound]                IC50           nM                 57600
1  CCCCCCCCS(=O)(=O)c1nc(OC)ccc1[N+](=O)[O-]                IC50           nM                  3220
2       CCS(=O)(=O)c1nc(OC)ccc1[N+](=O)[O-]                IC50           nM                  1120
3  COc1ccc([N+](=O)[O-])c(S(=O)(=O)c2ccc(Cl)cc2)n1                IC50           nM                  1200
4  COC(=O)CCS(=O)(=O)c1nc(OC)ccc1[N+](=O)[O-]                IC50           nM                  1170
5  COc1ccc([N+](=O)[O-])c(S(=O)(=O)Cc2ccccc2)n1                IC50           nM                  1210
6  O=C1C=C[C@H]2[C@@H]3C(=O)N(Cc4ccccc4)C(=O)[C@@H]3[C@@H]1N2Cc1ccccc1 (relative stereo)                IC50           nM                   420
